Exercise: state measured log2 fold change of degron read counts for each of the sequences provided.
# tested-system: T1, CRBN, Q96SW2;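 also: pooled lentiviral library of zinc finger degron-EGFP fusions in mCherry-positive Jurkat cells, FACS-sorted after compound exposure, with degron abundance counted by next-generation sequencing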
# T1 chain: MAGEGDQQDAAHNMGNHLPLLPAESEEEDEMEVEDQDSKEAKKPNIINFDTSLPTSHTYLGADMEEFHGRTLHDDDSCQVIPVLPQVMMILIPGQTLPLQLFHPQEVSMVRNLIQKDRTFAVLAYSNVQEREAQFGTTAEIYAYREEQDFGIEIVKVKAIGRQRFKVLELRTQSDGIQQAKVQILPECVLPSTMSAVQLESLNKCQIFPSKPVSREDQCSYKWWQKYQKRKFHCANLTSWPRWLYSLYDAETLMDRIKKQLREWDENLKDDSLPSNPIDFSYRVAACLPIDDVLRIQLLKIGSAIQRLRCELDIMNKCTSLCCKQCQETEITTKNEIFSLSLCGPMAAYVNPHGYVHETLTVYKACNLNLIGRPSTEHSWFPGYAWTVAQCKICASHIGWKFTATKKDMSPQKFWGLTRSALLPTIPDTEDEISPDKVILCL
# experimental-protocol: log2 fold change of degron read counts, EGFP-low vs EGFP+ sorted cells (limma voom), compound-induced degradation; higher = more compound-induced degradation of the degron-EGFP fusion; degrons are variants of IKZF1/3 zinc finger 2; compound dose not given here
# test-parameters: Jurkat; 18 h; compound: compound 19 (5-tert-butyl-thalidomide)
Over roughly 8,300 sequences, “log2 fold change of degron read counts, EGFP-low vs EGFP+ sorted cells (limma voom), compound-induced degradation” has its median near -1.1; the highest 2% begin near 3.2. What follows is part of a selection rich in the highest values, with near analogues and random picks from the rest.
Answers are plain numbers.

• FACDICGAGFTQKGNLLRHIKL [46F_47A_49D_50I_52G_53A_54G_55F_67L_, Q9UKT9] = 2.54
• FTCEQCGAKFTQKGNLLRHIKL [46F_47T_49E_50Q_52G_53A_54K_55F_67L_, Q9UKT9] = -1.64
• FWCNVCGAAFTQKGNLLRHIKL [46F_47W_49N_50V_52G_53A_54A_55F_67L_, Q9UKT9] = 1.25
• FFCEICGALFTQKGNLLRHIKL [46F_47F_49E_50I_52G_53A_54L_55F_67L_, Q9UKT9] = 3.18
• FNCEVCGAAFTQKGNLLRHIKL [46F_47N_49E_50V_52G_53A_54A_55F_67L_, Q9UKT9] = 3.07

For every item below, please supply its log2 fold change of degron read counts.
1. FMCEVCGAAFTQKGNLLRHIKL [46F_47M_49E_50V_52G_53A_54A_55F_67L_, Q9UKT9]
2. FCCNVCGAAFTQKGNLLRHIKL [46F_47C_49N_50V_52G_53A_54A_55F_67L_, Q9UKT9]
3. FYCEICGALFTQKGNLLRHIKL [46F_47Y_49E_50I_52G_53A_54L_55F_67L_, Q9UKT9]
4. FYCNVCGAAFTQKGNLLRHIKL [46F_47Y_49N_50V_52G_53A_54A_55F_67L_, Q9UKT9]

Result:
1: 2.23; 2: 0.855; 3: 3.29; 4: 1.57
